From: the Human Domainome abundance scans (Beltran et al. 2025)

Record form. Attribute: abundance fitness. Fill in for each entry.
B1: Homeobox expressed in ES cells 1, residues 110 to 165; numbered along this chain, Q9UBX0 (parent)
chain: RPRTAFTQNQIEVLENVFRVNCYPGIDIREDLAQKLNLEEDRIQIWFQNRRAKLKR

- Variants of: B1
- ASSAY OVERVIEW: abundance fitness (aPCA) (normalised: wild type 0, dead -1); higher = more abundant; growth selection in yeast, the domain comes from the species named
- ASSAY CONDITIONS: Homo sapiens

Check out these entries, answers already filled in.
Which measured abundance fitness value corresponds to D31T ?
-0.568

Now consider Q8F .
-0.441

Now consider N9H .
0.148

Now consider A33W .
-0.694

Now consider E30P .
-0.781

Now consider F18D .
-0.701

# return abundance fitness for each item in the list
1. Q8W
2. G25P
3. P24E
4. F6W
5. E15V
6. E12P

1: -0.598; 2: 0.187; 3: -0.644; 4: -0.365; 5: -0.81; 6: -1.07

# return abundance fitness for each item in the list
1. D27N
2. D27K
3. A33L
4. D31W
5. T4G
6. L14M

1: 0.034; 2: -0.185; 3: -0.89; 4: -0.532; 5: 0.129; 6: -0.267
